pIC50: −log10 of the molar value.
Compiled notes: published pIC50 values involving FBXL10 (Homo sapiens (Human), UniProt Q8NHM5).

Fill in the recorded pIC50 for this molecule, with FBXL10 (Homo sapiens (Human), UniProt Q8NHM5) as test system: Cc1cn2c(n1)CCN(Cc1cc(C(=O)O)ccn1)CC2 < 5.60

Can you check FC(F)(F)c1ccccc1CCn1cnc(-c2cc(-c3nn[nH]n3)ccn2)c1 next? ≥ 7.00

Can you check CC(C#N)NCc1ccnc(CNCCCN(C)C)c1 (stereo not drawn) next? < 5.60

Can you check O=C(O)c1ccnc(-n2nc(Cc3cc(Cl)cc(Cl)c3)cc2O)c1 next? 6.00 to 7.00

Can you check FC(F)(F)c1cccc(Cn2cnc(-c3cc(-c4c[nH]nn4)ccn3)c2)c1Cl next? ≥ 7.00

Can you check C[C@H](c1ccccc1)N1CC[C@@H](CNCc2cc(C(=O)O)ccn2)C1=O next? > 6.60

Can you check CCN1CCN(C2=NCCN2S(=O)(=O)c2ccccc2Cl)CC1 next? 8.55

Can you check COc1ccnc2c1CCC2NCc1cc(C(=O)O)ccn1 (stereo not drawn) next? > 6.60

Can you check COCCn1cnc(-c2cc(C(=O)O)ccn2)c1-c1ccc(Cl)c(F)c1 next? ≥ 7.00
